Target: Stromelysin-1 (Homo sapiens, UniProt P08254)
Sequence (P08254 100-477 limits assumed): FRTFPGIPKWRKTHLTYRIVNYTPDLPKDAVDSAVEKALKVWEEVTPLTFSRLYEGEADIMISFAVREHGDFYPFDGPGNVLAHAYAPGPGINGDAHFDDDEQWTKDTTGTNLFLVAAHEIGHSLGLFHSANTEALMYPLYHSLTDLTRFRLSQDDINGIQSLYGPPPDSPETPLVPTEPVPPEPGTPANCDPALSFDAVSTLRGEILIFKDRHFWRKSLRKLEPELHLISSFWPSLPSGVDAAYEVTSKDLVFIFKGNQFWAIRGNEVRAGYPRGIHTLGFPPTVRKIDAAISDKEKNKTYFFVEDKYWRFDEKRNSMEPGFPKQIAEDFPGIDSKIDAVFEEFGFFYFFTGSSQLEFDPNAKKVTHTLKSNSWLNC
Experiment: Binding affinity for human Matrix metalloprotease-3
quantity_name: Concentration (nM)
Numeric answer only, unit nM assumed.

Record O=C(O)[C@H]1Cc2ccccc2CC1S(=O)(=O)c1ccc(F)cc1 (stereo not given in full) ; system Stromelysin-1 (Homo sapiens, UniProt P08254); Concentration = 400

Record O=C(O)[C@H]1Cc2ccccc2CC1S(=O)(=O)c1ccc(Oc2ccccc2)cc1 (stereo not given in full) ; system Stromelysin-1 (Homo sapiens, UniProt P08254); Concentration = 200

Record O=C(O)[C@H]1Cc2ccccc2CC1S(=O)(=O)c1ccc(Cl)cc1 (stereo not given in full) ; system Stromelysin-1 (Homo sapiens, UniProt P08254); Concentration = 100

Record O=C(O)[C@H]1Cc2ccccc2CC1S(=O)(=O)c1ccc(CCc2ccccc2)cc1 (stereo not given in full) ; system Stromelysin-1 (Homo sapiens, UniProt P08254); Concentration = 50

Record N#Cc1ccc(-c2ccc(S(=O)(=O)C3Cc4ccccc4C[C@@H]3C(=O)O)cc2)cc1 (stereo not given in full) ; system Stromelysin-1 (Homo sapiens, UniProt P08254); Concentration = 1000

Origin of the recorded values: ChEMBL document CHEMBL1142054
